These entries and their values trace back to patent US20190045783A1.

procedureSummary: log P by HPLC on reversed-phase column (C18), EEC directive 79/831 Annex V.A8
Assay type: physicochemical
runParameters: reversed-phase HPLC column (C18); neutral range, pH 7.8, HPLC C18, 43° C.; Table 1; read-out: logP [n]
chromatographic logP reference
observationType: chromatographic logP

>>> print(df.to_string())
                        chemicalstring  resultnumber
0   COC(=O)c1ncc(C(=O)N(C)c2cccnc2)n1C          0.42
1  CN(C(=O)c1cnc(C2OCCCO2)n1C)c1cccnc1          0.92

---

procedureSummary: log P by HPLC on reversed-phase column (C18), EEC directive 79/831 Annex V.A8
Type: physicochemical
runParameters: pH 7.8
logP [n] by entry:
observationType: logP [n]

In [3]: df
Out[3]:
                                   molecule  resultnumber
0  CN(/N=C/c1ncc(C(=O)N(C)c2cccnc2)n1C)C(=O)OC(C)(C)C          1.82
1      CCCO/N=C/c1ncc(C(=O)N(C)c2cccnc2)n1C          1.74
2  CCOC(=O)N(C)/N=C/c1ncc(C(=O)N(C)c2cccnc2)n1C          1.33
3    CC(C)O/N=C/c1ncc(C(=O)N(C)c2cccnc2)n1C           1.7
4  CN(C(=O)c1cnc(/C=N/OC2CCCC2)n1C)c1cccnc1          2.14
5  CC1OC(c2ncc(C(=O)N(C)c3cccnc3)n2C)OC1C (stereo not shown)          1.23
6  COCC1COC(c2ncc(C(=O)N(C)c3cccnc3)n2C)O1 (stereo not shown)          0.95
7  COCCOC(=O)N/N=C/c1ncc(C(=O)N(C)c2cccnc2)n1C          1.26
8  CCOC(=O)N/N=C/c1ncc(C(=O)N(C)c2cccnc2)n1C          1.06
9        CNC(=O)c1ncc(C(=O)N(C)c2cccnc2)n1C           0.7

---

procedureSummary: log P by HPLC on reversed-phase column (C18), EEC directive 79/831 Annex V.A8
Assay type: physicochemical
runParameters: reversed-phase HPLC column (C18); neutral range, pH 7.8, HPLC C18, 43° C.; preparation examples; read-out: log P[n]
observationType: chromatographic logP

>>> df
                          chemicalstring  resultnumber
0         CN(C(=O)c1cnc(C=O)n1C)c1cccnc1          0.59
1              CN(C(=O)c1cncn1C)c1cccnc1          0.44
2  CC(C)C(=O)c1ncc(C(=O)N(C)c2cccnc2)n1C          1.55
3    CCNC(=O)c1ncc(C(=O)N(C)c2cccnc2)n1C          0.97

---

procedureSummary: log P by HPLC on reversed-phase column (C18), EEC directive 79/831 Annex V.A8
Assay type: physicochemical
runParameters: acidic range, pH 2.7, HPLC C18, 43° C.; preparation examples; read-out: log P[a]
observationType: chromatographic logP

In [3]: df
Out[3]:
                                   molecule       observationtype  resultnumber
0  COC(=O)c1ncc(C(=O)N(C)c2cccnc2)n1C [I-1-026]  chromatographic logP          0.53
